Where do these numbers come from? They come from ChEMBL document CHEMBL3885861.

organism: Rattus norvegicus; assay: Open TG-GATES - Regimen: Daily Repeat; assay type: toxicity, organism-based, Sprague-Dawley; parameters: regimen Daily Repeat, gender Male, age 6 weeks; settings: in vivo, po, 300 mg/kg, 72 h, tissue Plasma, route gavage, dose level Middle, time 3 day
measured-endpoint: ALT (IU/L)
Your answer should be a plain number; it is taken to be in IU/L.

Record excerpt, results attached:
Report ALT for O=C(O)c1ccccc1Nc1ccccc1 [FENAMIC ACID] please.
37.4

For CCCCNC(=O)NS(=O)(=O)c1ccc(C)cc1 [TOLBUTAMIDE] then?
49.4

For CC(S)C(=O)NCC(=O)O (centres undefined) [TIOPRONIN] then?
42

Next:
Report ALT for CC(=O)[C@@]1(O)CC[C@H]2[C@@H]3C=C(Cl)C4=CC(=O)CC[C@]4(C)[C@H]3CC[C@@]21C [CHLORMADINONE] please.
51
